target: CRTH2 receptor (hCRTH2) (Homo sapiens, UniProt Q9Y5Y4); construct: expressed in transfected cells; host or cells: HEK cells (HEK-hCRTH2 cell line), membranes; test: Radioligand binding assay ([3H]PGD2 competition, membranes of HEK-hCRTH2 cell line); conditions: 3.0 nM [3H]PGD2, HEK-hCRTH2 membranes, 60 min, room temperature; read-out: Ki
Sequence (Q9Y5Y4 whole entry): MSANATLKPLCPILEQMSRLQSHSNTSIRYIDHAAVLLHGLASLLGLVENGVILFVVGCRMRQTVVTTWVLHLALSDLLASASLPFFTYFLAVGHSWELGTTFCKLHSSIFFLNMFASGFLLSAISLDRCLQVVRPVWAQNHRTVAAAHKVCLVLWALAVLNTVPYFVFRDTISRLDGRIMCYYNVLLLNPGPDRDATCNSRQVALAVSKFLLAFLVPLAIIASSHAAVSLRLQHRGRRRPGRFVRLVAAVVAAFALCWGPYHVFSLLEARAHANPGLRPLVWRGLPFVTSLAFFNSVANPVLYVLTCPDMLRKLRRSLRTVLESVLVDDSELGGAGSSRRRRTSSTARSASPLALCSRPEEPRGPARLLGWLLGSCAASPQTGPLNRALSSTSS
REPORTED ENDPOINT: Ki

Query string: Write down Ki measured for item CC1(c2nc3ccc(F)cc3o2)CC(c2ccc3c(=O)n(-c4ccc(F)cc4)c(CCCCC(=O)O)nc3c2)=NO1 (centres unmarked) [Example 169]
Result string: ≤ 10 nM

Query string: Write down Ki measured for item CC(C)(O)c1cn(-c2ccc3c(=O)n(-c4ccc(F)cc4)c(CCCCC(=O)O)nc3c2)nn1 [Example 21C]
Result string: 10 to 50 nM

Query string: Write down Ki measured for item O=C(O)CCCCc1nc2cc(-c3cc(COCc4ccccc4F)on3)ccc2c(=O)n1-c1ccc(F)cc1 [Example 279]
Result string: ≤ 10 nM
